B1: CRYL1 (parent)
chain: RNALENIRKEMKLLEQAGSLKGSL

Variants of: B1
protocol text: protein stability index of a GFP-peptide fusion (GPS, HEK-293T) (PSI 1-6); higher = more stable;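 further: lentivirally expressed fusions sorted by FACS into six bins by GFP to DsRed ratio, PSI derived from sequencing read proportions per bin multiplied by bin number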
stated conditions: c terminus: a fixed tail appended
Task for the reader: assign each of the following variants its reported protein stability index.
Give the value as a plain number.

So what's the measured protein stability index for this one? RNALENIRKEMKLLEQAGSLKGSM [L24M]
3.3

So what's the measured protein stability index for this one? RNALENIRLEMKLLEQAGSLKGSL [K9L]
1.94

So what's the measured protein stability index for this one? RNALENIRKEMKLLEQAGALKGSL [S19A]
2.51

So what's the measured protein stability index for this one? RNALENIRIEMKLLEQAGSLKGSL [K9I]
1.48

So what's the measured protein stability index for this one? RNALRNIRKEMKLLEQAGSLKGSL [E5R]
3.06

So what's the measured protein stability index for this one? RYALENIRKEMKLLEQAGSLKGSL [N2Y]
2.48

So what's the measured protein stability index for this one? RNALENYRKEMKLLEQAGSLKGSL [I7Y]
3.67

So what's the measured protein stability index for this one? RNALENIRKEMRLLEQAGSLKGSL [K12R]
3.06

So what's the measured protein stability index for this one? RNALENIRKEMKLLHQAGSLKGSL [E15H]
2.77

So what's the measured protein stability index for this one? RNALENIRKEMCLLEQAGSLKGSL [K12C]
3.43

So what's the measured protein stability index for this one? RNALENIRKEMKLLEQARSLKGSL [G18R]
3.23

So what's the measured protein stability index for this one? RNALENIRKEMKLLEQAGYLKGSL [S19Y]
2.17

So what's the measured protein stability index for this one? RNALENIRKEMYLLEQAGSLKGSL [K12Y]
3.75

So what's the measured protein stability index for this one? RNALENIRKEMKLLEQAGSQKGSL [L20Q]
4.71

Data provenance: the supplement of paper PMC10567573
